# System: Immortalized human astrocytes
# test protocol: MTT cell viability assay, astrocytes (non-cancer control)
# Assay type: cell-based
# measurement context: Homo sapiens, Astrocyte, 72 h, immortalized human astrocytes, MTT after three days
Item-by-item account of IC50

These recorded examples may help you get a feel for the data.
> print(dat)
                                   compound  measured.parameter   result
1  Nc1nccc(N2CCCCC2CO)n1 (stereo not drawn)                IC50  > 80 µM
2  COC(=O)C1(CCCc2ccccc2)CCCN(c2ccnc(N)n2)C1 (stereo not drawn)                IC50    70 µM
3  Nc1nc(N)nc(N2CCCC(CO)(CCCc3ccccc3)C2)n1 (stereo not drawn)                IC50  > 80 µM
4  Nc1nccc(N2CCCC(CO)(CCc3ccccc3)C2)n1 (stereo not drawn)                IC50   ~80 µM
5                       Nc1nccc(N2CCCCC2)n1                IC50  > 80 µM
6  COc1nc(OC)nc(N2CCC(CO)(CCCc3ccccc3)CC2)n1                IC50  > 80 µM

Now consider the entry below.
Asked: Bench note: what IC50 did Cc1ncnc(N2CCC(CO)(CCCc3ccccc3)CC2)c1C show?
Given back: ~8 µM

Each recorded value in this set is attributed to patent US20220213055A1.
